Biological target: UniProt P24941
Assay: Inhibition of CDK2 at 10 uM by HTRF assay relative to control
Attribute: inhibition
Numbers only; they are read as %.

# Substance smiles, Units text, Endpoint result
rows = [
    ("Cc1cccc(Oc2ccnc(N3CCN(CC(=O)Nc4cccc5c4CCCC5)CC3)n2)c1", "%", 4),
]

## Input Quote inhibition with test system UniProt P24941 for Nc1nc(N2CCOCC2)cc(N2CCC(C(=O)NCc3cccs3)CC2)n1
## Output 14

## Input Using UniProt P24941 as the test system, report measured inhibition of Cc1cccc(N(C)c2cc(N3CCN(C(=O)Cc4c[nH]c5ccccc45)CC3)ncn2)c1 .
## Output 10

## Input Param request: inhibition | system UniProt P24941 | item Cc1cccc(N(C)c2cc(Nc3cccc(C(=O)NCc4ccncc4)c3)ncn2)c1
## Output 20

## Input Under UniProt P24941, report inhibition for CN(CCCn1ccnc1)C(=O)[C@@H]1CCCN1c1nccc(Nc2ccccc2)n1
## Output 24

## Input Give measured inhibition for Cc1cccc(N(C)c2cc(Nc3cccc(C(=O)NCc4ccc(N(C)C)cc4)c3)ncn2)c1 (UniProt P24941).
## Output 1

## Input Given O=C(NCCc1ccc(O)cc1)c1cccc(Nc2nccc(Nc3ccc4ncsc4c3)n2)c1 , report its inhibition on UniProt P24941.
## Output 8

## Input # lookup: UniProt P24941 inhibition, key = CN(C)c1ccc(C(=O)N2CCN(c3ncnc4c3CN(Cc3ccccc3)CC4)CC2)c2ccccc12
## Output 5

## Input Quote inhibition with test system UniProt P24941 for Cc1cccc(Nc2ncnc3c2CN(C(=O)c2ccc(N(C)C)c4ccccc24)CC3)c1
## Output 24

###

Molecular target: Protein kinase C gamma type (Homo sapiens) (UniProt P05129)
Assay: Inhibition of PKCgamma at 10 uM by HTRF assay relative to control
Heads up, the class ranges for inhibition are label 0 = under 2%, label 1 = from 2% up to 5%, label 2 = 5% and over

Solved cases below.
# Compound, Target desc, Class assignment
records = [
    ("Cc1cccc(N(C)c2cc(Nc3cccc(C(=O)NCc4ccc(N(C)C)cc4)c3)ncn2)c1", "Protein kinase C gamma type (Homo sapiens) (UniProt P05129)", "label 2"),
    ("CC(=O)CCCCC(=O)N1CCN(c2nccc(Oc3cccc(C)c3)n2)CC1", "Protein kinase C gamma type (Homo sapiens) (UniProt P05129)", "label 0"),
    ("Nc1nc(N2CCOCC2)cc(N2CCC(C(=O)NCCc3ccc(O)cc3)CC2)n1", "Protein kinase C gamma type (Homo sapiens) (UniProt P05129)", "label 0"),
    ("COC(=O)C(CO)NC(=O)[C@@H]1CCCN1c1nccc(Oc2cccc(C)c2)n1 (stereo not given in full)", "Protein kinase C gamma type (Homo sapiens) (UniProt P05129)", "label 1"),
    ("O=C(c1nc(SCc2ccc(Cl)cc2)n2ccccc12)N1CCN(c2cc(Nc3cccc(Br)c3)ncn2)CC1", "Protein kinase C gamma type (Homo sapiens) (UniProt P05129)", "label 1"),
]

## Input Band for the recorded inhibition of CN(C)c1ccc(C(=O)N2CCN(c3ncnc4c3CN(Cc3ccccc3)CC4)CC2)c2ccccc12 ?
## Output label 1

## Input # classify by inhibition band: CN(C)CC(C)(C)CNC(=O)C1CCN(c2cc(N3CCOCC3)nc(N)n2)CC1
## Output label 1

## Input # classify by inhibition band: O=C(NC[C@@H]1CCCO1)c1cccc(Nc2nccc(Nc3ccc4ncsc4c3)n2)c1
## Output label 2

## Input Which category fits this record: O=C(NCCc1ccc(O)cc1)c1cccc(Nc2nccc(Nc3ccc4ncsc4c3)n2)c1
## Output label 2

## Input Bin? Nc1nc(Nc2ccc3ncsc3c2)cc(N2CCC[C@H]2C(=O)NCCc2cccc(I)c2)n1
## Output label 0

###

Biological target: UniProtKB P43403
Sequence (whole entry): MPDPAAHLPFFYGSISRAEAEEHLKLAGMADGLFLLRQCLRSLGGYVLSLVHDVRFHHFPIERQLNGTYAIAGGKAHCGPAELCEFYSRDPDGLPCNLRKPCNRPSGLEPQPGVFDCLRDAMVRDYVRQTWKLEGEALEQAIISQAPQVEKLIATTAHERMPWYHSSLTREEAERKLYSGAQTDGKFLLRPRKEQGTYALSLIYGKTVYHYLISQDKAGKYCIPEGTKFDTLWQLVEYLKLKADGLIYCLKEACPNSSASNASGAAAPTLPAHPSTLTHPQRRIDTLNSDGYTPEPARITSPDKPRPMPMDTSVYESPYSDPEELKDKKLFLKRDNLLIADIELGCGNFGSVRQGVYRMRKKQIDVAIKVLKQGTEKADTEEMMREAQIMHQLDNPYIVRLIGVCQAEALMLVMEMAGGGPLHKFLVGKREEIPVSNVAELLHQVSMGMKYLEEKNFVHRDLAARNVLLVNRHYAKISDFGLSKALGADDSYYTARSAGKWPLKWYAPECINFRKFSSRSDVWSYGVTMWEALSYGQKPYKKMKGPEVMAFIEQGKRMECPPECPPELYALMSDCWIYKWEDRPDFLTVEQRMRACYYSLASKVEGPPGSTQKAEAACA
Experiment: Inhibition of ZAP70 at 10 uM by HTRF assay relative to control
Measure: inhibition (%)
Numeric answer only, unit % assumed.

Look over these answered cases.
# Compound, Units text, Endpoint result
records = [
    ("O=C(NCCc1ccc(O)cc1)c1cccc(Nc2nccc(Nc3ccc4ncsc4c3)n2)c1", "%", 3),
    ("COC[C@@H]1CCCN1C(=O)C1CCCN1c1cc(Nc2cccc(Br)c2)ncn1 (stereo not given in full)", "%", 0),
    ("O=C(C1CCN(c2nccc(Nc3ccccc3)n2)CC1)N1CC[C@@H](O)C1", "%", 3),
]

## Input Complete the entry with inhibition for O=C(COc1ccccc1)N1CCN(c2nccc(Nc3ccc4ncsc4c3)n2)CC1
## Output 0

## Input For the compound CN(C)CC(C)(C)CNC(=O)[C@@H]1CCCN1c1nccc(Nc2ccccc2)n1 , give its measured inhibition value.
## Output 1

## Input Complete the entry with inhibition for Cc1cccc(Nc2nccc(Nc3cccc(C(=O)N(C)CCc4ccccn4)c3)n2)c1
## Output 23

## Input Tell us which inhibition value is on record for COc1cccc(Nc2cc(Nc3cccc(C(=O)NCCCn4ccnc4)c3)nc(N)n2)c1
## Output 6

## Input Return inhibition (reported value) for this compound: Clc1ccc2sc(CN3CCN(c4ncnc5c4CN(Cc4ccccc4)CC5)CC3)cc2c1
## Output 5

## Input Quick one: give measured inhibition for COC[C@@H]1CCCN1C(=O)[C@@H]1CCCN1c1nccc(Nc2ccccc2)n1
## Output 6

## Input Return the recorded inhibition value; entry: Cc1cccc(N(C)c2cc(Nc3cccc(C(=O)N(CC(C)C)CC(C)C)c3)ncn2)c1
## Output 0

## Input Assign inhibition to the following record: Nc1nc(Nc2ccccc2)cc(N2CCC(C(=O)NCCc3ccccn3)CC2)n1
## Output 0

## Input Quote inhibition reported for COc1cccc(Nc2cc(Nc3cccc(C(=O)N(C)CCc4ccccn4)c3)nc(N)n2)c1 please.
## Output 3

###

Biological target: Protein kinase C gamma type (Homo sapiens) (UniProt P05129)
Assay: Inhibition of PKCgamma at 10 uM by HTRF assay relative to control
Measure: inhibition (%)
Just the number in %, nothing appended.

# Substance smiles, Target desc, inhibition [%]
data = [
    ("COc1cccc(Nc2cc(Nc3cccc(C(=O)N(C)CCc4ccccn4)c3)nc(N)n2)c1", "Protein kinase C gamma type (Homo sapiens) (UniProt P05129)", 1),
    ("Cc1cccc(CN2CCN(c3cc(N(C)c4cccc(C)c4)ncn3)CC2)c1", "Protein kinase C gamma type (Homo sapiens) (UniProt P05129)", 2),
    ("CN(C)CC(C)(C)CNC(=O)[C@@H]1CCCN1c1nccc(Nc2ccccc2)n1", "Protein kinase C gamma type (Homo sapiens) (UniProt P05129)", 2),
]

## Input Fill in inhibition for record COC[C@@H]1CCCN1C(=O)[C@@H]1CCCN1c1cc(Nc2cccc(OC)c2)nc(N)n1
## Output 0

###

Biological target: UniProtKB P35968
Sequence (P35968 whole entry): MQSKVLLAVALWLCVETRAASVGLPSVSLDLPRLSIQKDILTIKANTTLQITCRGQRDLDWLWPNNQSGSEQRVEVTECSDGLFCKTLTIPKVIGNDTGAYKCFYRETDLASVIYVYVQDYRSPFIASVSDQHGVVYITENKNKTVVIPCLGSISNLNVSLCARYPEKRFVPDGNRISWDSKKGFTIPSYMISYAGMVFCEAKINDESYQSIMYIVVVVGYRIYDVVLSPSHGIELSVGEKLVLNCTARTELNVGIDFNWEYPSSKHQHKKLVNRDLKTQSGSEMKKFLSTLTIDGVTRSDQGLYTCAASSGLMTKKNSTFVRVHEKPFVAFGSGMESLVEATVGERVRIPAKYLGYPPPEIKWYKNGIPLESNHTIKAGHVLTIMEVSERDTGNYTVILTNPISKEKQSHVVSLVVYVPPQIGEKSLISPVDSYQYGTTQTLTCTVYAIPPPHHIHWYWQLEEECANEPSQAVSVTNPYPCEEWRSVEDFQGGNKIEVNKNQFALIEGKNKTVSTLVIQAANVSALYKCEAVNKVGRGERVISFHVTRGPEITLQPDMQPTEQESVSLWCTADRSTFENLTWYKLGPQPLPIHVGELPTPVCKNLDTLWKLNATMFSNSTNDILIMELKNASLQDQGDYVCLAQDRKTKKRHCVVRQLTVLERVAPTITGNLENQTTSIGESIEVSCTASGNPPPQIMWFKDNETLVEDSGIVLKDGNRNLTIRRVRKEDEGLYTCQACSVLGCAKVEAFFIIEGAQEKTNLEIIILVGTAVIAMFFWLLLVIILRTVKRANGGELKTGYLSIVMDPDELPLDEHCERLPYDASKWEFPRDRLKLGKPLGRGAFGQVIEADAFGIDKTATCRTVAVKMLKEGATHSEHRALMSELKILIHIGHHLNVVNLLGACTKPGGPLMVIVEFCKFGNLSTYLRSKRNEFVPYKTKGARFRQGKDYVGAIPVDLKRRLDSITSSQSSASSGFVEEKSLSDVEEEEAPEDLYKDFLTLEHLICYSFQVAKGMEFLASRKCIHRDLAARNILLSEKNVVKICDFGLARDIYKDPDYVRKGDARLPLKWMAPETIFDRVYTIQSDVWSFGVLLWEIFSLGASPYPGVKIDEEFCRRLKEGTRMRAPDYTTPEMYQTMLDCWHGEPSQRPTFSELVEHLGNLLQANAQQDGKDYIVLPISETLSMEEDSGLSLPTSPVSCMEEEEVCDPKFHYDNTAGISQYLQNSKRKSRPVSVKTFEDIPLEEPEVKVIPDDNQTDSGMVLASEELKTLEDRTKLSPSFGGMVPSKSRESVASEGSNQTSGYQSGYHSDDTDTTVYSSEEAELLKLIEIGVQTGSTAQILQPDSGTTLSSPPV
Assay: Inhibition of KDR at 10 uM by HTRF assay relative to control
Measure: inhibition
Number first, unit second: that is the form wanted.

Here are 4 compounds together with their reported answers.
# Substance smiles, Target desc, inhibition
records = [
    ("Cc1cccc(N(C)c2cc(N3CCN(C(=O)Cc4c[nH]c5ccccc45)CC3)ncn2)c1", "UniProtKB P35968", "3%"),
    ("O=C(NC[C@@H]1CCCO1)c1cccc(Nc2nccc(Nc3ccc4ncsc4c3)n2)c1", "UniProtKB P35968", "95%"),
    ("Cc1cccc(CN2CCN(c3cc(N(C)c4cccc(C)c4)ncn3)CC2)c1", "UniProtKB P35968", "3%"),
    ("O=C(COc1ccccc1)N1CCN(c2nccc(Nc3ccc4ncsc4c3)n2)CC1", "UniProtKB P35968", "35%"),
]

# ---- query compound ----
## Input For the compound CN(C)CC(C)(C)CNC(=O)[C@@H]1CCCN1c1nccc(Nc2ccccc2)n1 , give its measured inhibition value.
## Output 5%
